Target: recombinant full-length WRN protein (1-1432) (Homo sapiens)
Construct: recombinant full-length WRN protein (1-1432)
Sequence (Q14191 whole entry): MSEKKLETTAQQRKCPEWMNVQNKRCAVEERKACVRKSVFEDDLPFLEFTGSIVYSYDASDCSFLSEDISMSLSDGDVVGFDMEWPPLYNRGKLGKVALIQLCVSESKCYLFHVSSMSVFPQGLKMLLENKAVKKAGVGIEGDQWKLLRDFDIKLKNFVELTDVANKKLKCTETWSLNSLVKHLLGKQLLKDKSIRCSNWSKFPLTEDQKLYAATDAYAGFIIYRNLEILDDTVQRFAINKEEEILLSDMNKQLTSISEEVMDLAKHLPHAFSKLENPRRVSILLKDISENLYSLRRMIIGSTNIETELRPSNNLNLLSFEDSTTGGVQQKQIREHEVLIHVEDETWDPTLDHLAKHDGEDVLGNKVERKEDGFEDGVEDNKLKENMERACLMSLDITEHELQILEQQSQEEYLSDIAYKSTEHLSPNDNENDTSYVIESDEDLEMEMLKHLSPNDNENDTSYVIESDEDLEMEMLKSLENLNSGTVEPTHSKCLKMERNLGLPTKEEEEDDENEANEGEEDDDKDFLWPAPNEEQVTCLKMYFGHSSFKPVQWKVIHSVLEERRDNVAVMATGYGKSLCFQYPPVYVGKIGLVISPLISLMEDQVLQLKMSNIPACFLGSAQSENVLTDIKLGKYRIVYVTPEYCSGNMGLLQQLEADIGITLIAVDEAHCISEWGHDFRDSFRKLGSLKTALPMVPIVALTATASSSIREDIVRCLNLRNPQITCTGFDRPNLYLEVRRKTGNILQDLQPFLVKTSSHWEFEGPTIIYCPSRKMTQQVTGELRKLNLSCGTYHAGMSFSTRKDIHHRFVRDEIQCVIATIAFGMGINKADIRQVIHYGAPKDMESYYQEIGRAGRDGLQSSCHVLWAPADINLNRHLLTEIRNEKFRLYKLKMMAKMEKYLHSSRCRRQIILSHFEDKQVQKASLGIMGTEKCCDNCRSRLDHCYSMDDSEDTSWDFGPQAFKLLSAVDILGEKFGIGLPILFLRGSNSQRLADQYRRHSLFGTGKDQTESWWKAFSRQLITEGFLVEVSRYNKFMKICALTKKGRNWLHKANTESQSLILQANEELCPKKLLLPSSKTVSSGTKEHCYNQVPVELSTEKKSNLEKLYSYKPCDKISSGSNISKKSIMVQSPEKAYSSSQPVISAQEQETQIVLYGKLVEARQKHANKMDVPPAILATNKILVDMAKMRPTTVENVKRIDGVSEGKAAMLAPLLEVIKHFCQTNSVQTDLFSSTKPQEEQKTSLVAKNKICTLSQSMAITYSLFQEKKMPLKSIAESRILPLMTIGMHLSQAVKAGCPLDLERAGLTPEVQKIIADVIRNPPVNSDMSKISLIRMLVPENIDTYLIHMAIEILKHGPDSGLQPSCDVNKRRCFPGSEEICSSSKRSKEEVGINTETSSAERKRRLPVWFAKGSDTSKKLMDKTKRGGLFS
Assay: WRN unwinding activity, fluorogenic 384-well assay (Example A)
Assay type: biochemical
Conditions: WRN unwinding activity, 4 hr; Table 2; read-out: 4 hr UNW pIC50 (converted)
recorded_metric: IC50 (nM)
Reply with just the number (in nM).

Consider the molecule shown here: CN(c1ccc([C@H]2CCC[C@@H](C(=O)Nc3ccc(C(F)(F)F)cc3F)[C@@H]2C(=O)O)cc1)S(=O)(=O)c1ccc2oc(=O)n(C)c2c1 What is its recorded IC50?
5.01

Consider the molecule shown here: CCO[C@@H]1C[C@H](c2ccc(N(C)S(=O)(=O)c3ccc4c(c3)nc(N(C)C)n4C)cc2)[C@@H](C(=O)O)[C@H](C(=O)Nc2ccc(C(F)(F)F)cc2F)C1 What is its recorded IC50?
1.58

Consider the molecule shown here: Cc1nc2cc(S(=O)(=O)N(C)c3ccc([C@H]4CCC[C@H](C(=O)Nc5ccc(C(C)C)cc5)[C@@H]4C(=O)O)cc3)ccc2n1C (racemic) [Example 72] What is its recorded IC50?
3.16

* * *

Test system: SW48 human colorectal cancer cells
Assay: Calculated free drug potency in SW48 cell assay, corrected with media free fraction (Example C)
Type: cell-based
Conditions: Homo sapiens, SW48, SW48 pCC50 corrected with measured free fraction in cell assay media
recorded_metric: CC50
Record the result as number plus unit.

Consider the molecule shown here: CN(c1ccc([C@H]2CCC[C@@H](C(=O)Nc3ccc(C(F)(F)F)cc3F)[C@@H]2C(=O)O)cc1)S(=O)(=O)c1ccc2c(c1)OCC2 What is its recorded CC50?
32.4 nM

Consider the molecule shown here: CN(C)CCc1nc2cc(S(=O)(=O)N(C)c3ccc([C@H]4CCC[C@@H](C(=O)Nc5ccc(C(F)(F)F)cc5F)[C@@H]4C(=O)O)cc3)ccc2n1C What is its recorded CC50?
37.2 nM

Consider the molecule shown here: Cc1nc2cc(S(=O)(=O)N(C)c3ccc([C@H]4C[C@H](N5CC[C@H](F)C5)C[C@@H](C(=O)Nc5ccc(C(F)(F)F)cc5F)[C@@H]4C(=O)O)cc3)ccc2n1C (stereo in doubt) What is its recorded CC50?
331 nM

Consider the molecule shown here: CN(c1ccc([C@H]2CCC[C@@H](C(=O)Nc3ccc(C(F)(F)F)cc3F)[C@@H]2C(=O)O)cc1)S(=O)(=O)c1ccc2c(c1)nc(N)n2C What is its recorded CC50?
56.2 nM

Consider the molecule shown here: Cc1nc2cc(S(=O)(=O)N(C)c3ccc([C@H]4C[C@@H](CS(C)(=O)=O)C[C@@H](C(=O)Nc5ccc(C(F)(F)F)cc5F)[C@@H]4C(=O)O)cc3)ccc2n1C (relative stereo) What is its recorded CC50?
87.1 nM

Consider the molecule shown here: CN[C@H]1C[C@H](C(=O)Nc2ccc(C(F)(F)F)cc2F)[C@@H](C(=O)O)[C@H](c2ccc(N(C)S(=O)(=O)c3ccc4c(c3)nc(C)n4C)cc2)C1 (single isomer, unassigned) What is its recorded CC50?
3470 nM

Consider the molecule shown here: CC(=O)N(C)[C@H]1C[C@H](c2ccc(N(C)S(=O)(=O)c3ccc4c(c3)nc(C)n4C)cc2)[C@@H](C(=O)O)[C@H](C(=O)Nc2ccc(C(F)(F)F)cc2F)C1 (stereo in doubt) What is its recorded CC50?
1620 nM

Consider the molecule shown here: CN(c1ccc([C@H]2CCC[C@@H](C(=O)Nc3ccc(C(F)(F)F)cc3F)[C@@H]2C(=O)O)cc1)S(=O)(=O)c1ccc2c(c1)nc(C1CC1)n2C What is its recorded CC50?
16.2 nM

Consider the molecule shown here: Cc1nc2cc(S(=O)(=O)N(C)c3ccc([C@H]4CCC[C@@H](C(=O)Nc5ccc6c(c5)CC(F)(F)C6)[C@@H]4C(=O)O)cc3)ccc2n1C What is its recorded CC50?
1150 nM

Consider the molecule shown here: Cc1nc2cc(S(=O)(=O)N(C)c3ccc([C@@H]4CCC[C@H](C(=O)Nc5ccc(C(F)(F)F)cn5)[C@H]4C(=O)O)cc3)ccc2n1C (relative stereo) What is its recorded CC50?
37.2 nM
